# key: entry, value: viability, T/C
System: 743489-274-T-PDC complex spheroid growth
Test: Anticancer human tumor 743489-274-T-PDC patient-derived renal cell carcinoma cell line growth inhibition [AhR]
Conditions: second compound 0.1 µM; first compound 1 µM; hits give low values
Express your answer in %, writing the number without its unit.

Query :: What value of viability, T/C has been recorded for this entry: CC1COCCN1c1cc(C2(S(C)(=N)=O)CC2)nc(-c2ccnc3[nH]ccc23)n1 (configuration not stated) + Cc1ccccc1N=Nc1ccc(NC(=O)c2ccnn2C)c(C)c1
Result :: 97.3

Query :: What value of viability, T/C has been recorded for this entry: COc1cc(C2c3cc4c(cc3C(OC3OC5COC(C)OC5C(O)C3O)C3COC(=O)C23)OCO4)cc(OC)c1O (configuration not stated) + CC(CO)NC(=O)c1cc(-c2ccc(Cl)cc2)nn(-c2cnn(C)c2)c1=O
Result :: 95.9

Query :: What value of viability, T/C has been recorded for this entry: COc1ccc([C@@H](O)c2cc(-c3ncnc4cc(N5CCOCC5)ccc34)c(F)cc2Cl)nn1 + CC(CO)NC(=O)c1cc(-c2ccc(Cl)cc2)nn(-c2cnn(C)c2)c1=O
Result :: 86

###

Test system: 743489-274-T-PDC complex spheroid growth
Assay: Anticancer human tumor 743489-274-T-PDC cell line growth inhibition [AhR];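 note: spheroids exposed to agents for 7 days before readout; 100% = DMSO vehicle control wells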
Conditions: second compound 0.1 µM; first compound 10 µM; hits give low values
From the text: Multicellular complex tumor spheroid response to aryl hydrocarbon receptor antagonists in combination with a variety of drugs and investigational agents in selected tumor cell lines […] Compounds. […] If the clinical Cmax for an agent had not been determined, the highest concentration tested was 10 microM (Table 1). […]
Endpoint Label: viability, T/C (%)
Express your answer in %, writing the number without its unit.

The examples below pair each entry with its known result.
INSERT INTO measurements (compound, value_units, reported_value) VALUES
  ('Nc1ccccc1NC(=O)c1ccc(CNC(=O)OCc2cccnc2)cc1 + Cc1cncc(-c2nc(NCCc3c[nH]c4ccccc34)c3ncn(C(C)C)c3n2)c1', '%', 36.6),
  ('CC(C)c1c(-c2ccccc2)nc2c(C#N)c[nH]n2c1=O + Cc1cncc(-c2nc(NCCc3c[nH]c4ccccc34)c3ncn(C(C)C)c3n2)c1', '%', 104),
  ('CC1COCCN1c1cc(C2(S(C)(=N)=O)CC2)nc(-c2ccnc3[nH]ccc23)n1 (configuration not stated) + Cc1cncc(-c2nc(NCCc3c[nH]c4ccccc34)c3ncn(C(C)C)c3n2)c1', '%', 85.4),
  ('CC(C)c1c(-c2ccccc2)nc2c(C#N)c[nH]n2c1=O + Cc1ccccc1N=Nc1ccc(NC(=O)c2ccnn2C)c(C)c1', '%', 99.4),
  ('O=C(c1cc(Cc2n[nH]c(=O)c3ccccc23)ccc1F)N1CCN(C(=O)C2CC2)CC1 + Cc1ccccc1N=Nc1ccc(NC(=O)c2ccnn2C)c(C)c1', '%', 94.6);

Query :: What value of viability, T/C has been recorded for this entry: COc1ccc([C@@H](O)c2cc(-c3ncnc4cc(N5CCOCC5)ccc34)c(F)cc2Cl)nn1 + Cc1cncc(-c2nc(NCCc3c[nH]c4ccccc34)c3ncn(C(C)C)c3n2)c1
Result :: 36.1

Query :: What value of viability, T/C has been recorded for this entry: O=C(c1cc(Cc2n[nH]c(=O)c3ccccc23)ccc1F)N1CCN(C(=O)C2CC2)CC1 + CC(CO)NC(=O)c1cc(-c2ccc(Cl)cc2)nn(-c2cnn(C)c2)c1=O
Result :: 101

Query :: What value of viability, T/C has been recorded for this entry: Nc1ccn(C2OC(CO)C(O)C2(F)F)c(=O)n1 (configuration not stated) + CC(CO)NC(=O)c1cc(-c2ccc(Cl)cc2)nn(-c2cnn(C)c2)c1=O
Result :: 67.7

Query :: What value of viability, T/C has been recorded for this entry: O=C(c1cc(Cc2n[nH]c(=O)c3ccccc23)ccc1F)N1CCN(C(=O)C2CC2)CC1 + Cc1cncc(-c2nc(NCCc3c[nH]c4ccccc34)c3ncn(C(C)C)c3n2)c1
Result :: 85.6

Query :: What value of viability, T/C has been recorded for this entry: COc1cc(Nc2ncc3c(n2)-c2ccc(Cl)cc2C(c2c(F)cccc2OC)=NC3)ccc1C(=O)O + Cc1ccccc1N=Nc1ccc(NC(=O)c2ccnn2C)c(C)c1
Result :: 79.8

Query :: What value of viability, T/C has been recorded for this entry: Nc1ccccc1NC(=O)c1ccc(CNC(=O)OCc2cccnc2)cc1 + Cc1ccccc1N=Nc1ccc(NC(=O)c2ccnn2C)c(C)c1
Result :: 25.4

Query :: What value of viability, T/C has been recorded for this entry: CC1(C)CCC(CN2CCN(c3ccc(C(=O)NS(=O)(=O)c4ccc(NCC5CCOCC5)c([N+](=O)[O-])c4)c(Oc4cnc5[nH]ccc5c4)c3)CC2)=C(c2ccc(Cl)cc2)C1 + Cc1ccccc1N=Nc1ccc(NC(=O)c2ccnn2C)c(C)c1
Result :: 94.3

###

System: 743489-274-T-PDC complex spheroid growth
Test: Anticancer human tumor 743489-274-T-PDC cell line growth inhibition [AhR];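 note: spheroids exposed to agents for 7 days before readout; 100% = DMSO vehicle control wells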
Details: second compound 3.16 µM; first compound 0.949 µM; hits give low values
# key: entry, value: viability, T/C
Express your answer in %, writing the number without its unit.

INSERT INTO measurements (compound, reported_value) VALUES
  ('CCN(c1cc(-c2ccc(CN3CCOCC3)cc2)cc(C(=O)NCc2c(C)cc(C)[nH]c2=O)c1C)C1CCOCC1 + CC(CO)NC(=O)c1cc(-c2ccc(Cl)cc2)nn(-c2cnn(C)c2)c1=O', 92.7),
  ('CCN(c1cc(-c2ccc(CN3CCOCC3)cc2)cc(C(=O)NCc2c(C)cc(C)[nH]c2=O)c1C)C1CCOCC1 + Cc1cncc(-c2nc(NCCc3c[nH]c4ccccc34)c3ncn(C(C)C)c3n2)c1', 102),
  ('CCN(c1cc(-c2ccc(CN3CCOCC3)cc2)cc(C(=O)NCc2c(C)cc(C)[nH]c2=O)c1C)C1CCOCC1 + Cc1ccccc1N=Nc1ccc(NC(=O)c2ccnn2C)c(C)c1', 81),
  ('O=C(C=Cn1cnc(-c2cc(C(F)(F)F)cc(C(F)(F)F)c2)n1)NNc1cnccn1 + CC(CO)NC(=O)c1cc(-c2ccc(Cl)cc2)nn(-c2cnn(C)c2)c1=O', 105),
  ('O=C(C=Cn1cnc(-c2cc(C(F)(F)F)cc(C(F)(F)F)c2)n1)NNc1cnccn1 + Cc1cncc(-c2nc(NCCc3c[nH]c4ccccc34)c3ncn(C(C)C)c3n2)c1', 103);

Below: the item to evaluate.
Query :: What value of viability, T/C has been recorded for this entry: O=C(C=Cn1cnc(-c2cc(C(F)(F)F)cc(C(F)(F)F)c2)n1)NNc1cnccn1 + Cc1ccccc1N=Nc1ccc(NC(=O)c2ccnn2C)c(C)c1
Result :: 95.4

###

# key: entry, value: viability, T/C
Tested on: 743489-274-T-PDC complex spheroid growth
Assay: Anticancer human tumor 743489-274-T-PDC cell line growth inhibition [AhR];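 note: spheroids exposed to agents for 7 days before readout; 100% = DMSO vehicle control wells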
Conditions: second compound 0.1 µM; first compound 0.0316 µM; hits give low values
Express your answer in %, writing the number without its unit.

The examples below pair each entry with its known result.
INSERT INTO assay_data (compound, reported_value) VALUES
  ('O=C(c1cc(Cc2n[nH]c(=O)c3ccccc23)ccc1F)N1CCN(C(=O)C2CC2)CC1 + Cc1cncc(-c2nc(NCCc3c[nH]c4ccccc34)c3ncn(C(C)C)c3n2)c1', 91.6),
  ('O=C(c1cc(Cc2n[nH]c(=O)c3ccccc23)ccc1F)N1CCN(C(=O)C2CC2)CC1 + Cc1ccccc1N=Nc1ccc(NC(=O)c2ccnn2C)c(C)c1', 104),
  ('CC(C)c1c(-c2ccccc2)nc2c(C#N)c[nH]n2c1=O + Cc1ccccc1N=Nc1ccc(NC(=O)c2ccnn2C)c(C)c1', 102);

Below: the item to evaluate.
Query :: What value of viability, T/C has been recorded for this entry: COc1cccc2c1C(=O)c1c(O)c3c(c(O)c1C2=O)CC(O)(C(=O)CO)CC3OC1CC(N)C(O)C(C)O1 (centres undefined) + Cc1cncc(-c2nc(NCCc3c[nH]c4ccccc34)c3ncn(C(C)C)c3n2)c1
Result :: 92.1

###

Test system: 743489-274-T-PDC complex spheroid growth
Assay: Anticancer human tumor 743489-274-T-PDC cell line growth inhibition [AhR];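 note: spheroids exposed to agents for 7 days before readout; 100% = DMSO vehicle control wells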
Conditions: second compound 10 µM; first compound 0.0316 µM; hits give low values
Endpoint Label: viability, T/C (%)
Express your answer in %, writing the number without its unit.

INSERT INTO assay_data (molecule, endpoint_label, value_units, reported_value) VALUES
  ('COc1ccc([C@@H](O)c2cc(-c3ncnc4cc(N5CCOCC5)ccc34)c(F)cc2Cl)nn1 + Cc1cncc(-c2nc(NCCc3c[nH]c4ccccc34)c3ncn(C(C)C)c3n2)c1', 'viability, T/C', '%', 114),
  ('CC(C)c1c(-c2ccccc2)nc2c(C#N)c[nH]n2c1=O + Cc1cncc(-c2nc(NCCc3c[nH]c4ccccc34)c3ncn(C(C)C)c3n2)c1', 'viability, T/C', '%', 126),
  ('O=C(C=Cc1cccc(S(=O)(=O)Nc2ccccc2)c1)NO + Cc1cncc(-c2nc(NCCc3c[nH]c4ccccc34)c3ncn(C(C)C)c3n2)c1', 'viability, T/C', '%', 114),
  ('O=C(C=Cc1cccc(S(=O)(=O)Nc2ccccc2)c1)NO + CC(CO)NC(=O)c1cc(-c2ccc(Cl)cc2)nn(-c2cnn(C)c2)c1=O', 'viability, T/C', '%', 85.3),
  ('CC1COCCN1c1cc(-c2ccnn2C)c2ccnc(-c3ccn[nH]3)c2n1 (centres undefined) + Cc1cncc(-c2nc(NCCc3c[nH]c4ccccc34)c3ncn(C(C)C)c3n2)c1', 'viability, T/C', '%', 143);

Query :: What value of viability, T/C has been recorded for this entry: CC[C@@]1(O)C(=O)OCc2c1cc1n(c2=O)Cc2cc3c(CN(C)C)c(O)ccc3nc2-1 + CC(CO)NC(=O)c1cc(-c2ccc(Cl)cc2)nn(-c2cnn(C)c2)c1=O
Result :: 85.9

Query :: What value of viability, T/C has been recorded for this entry: Nc1ccccc1NC(=O)c1ccc(CNC(=O)OCc2cccnc2)cc1 + Cc1cncc(-c2nc(NCCc3c[nH]c4ccccc34)c3ncn(C(C)C)c3n2)c1
Result :: 102

The origin of these recorded values is PubChem BioAssay AID1919002.
